Please consider the recorded pIC50 for Xanthine dehydrogenase/oxidase (Bos taurus) in what follows.
pIC50: −log10 of the molar value.
METRIC NAME: pIC50

1) N#Cc1cn(Cc2ccc(Cl)cc2)c2ccc(-c3cc(C(=O)O)no3)cc12
5.90
2) N#Cc1cn(Cc2ccccc2)c2ccc(-c3cc(C(=O)O)no3)cc12
5.99
3) CCCCn1cc(C#N)c2cc(-c3cc(C(=O)O)no3)ccc21
6.27
4) CC(C)CCn1cc(C#N)c2cc(-c3cc(C(=O)O)no3)ccc21
6.42
5) N#Cc1cn(Cc2cccc(F)c2)c2ccc(-c3cc(C(=O)O)no3)cc12
5.89
6) N#Cc1cn(C2CCC2)c2ccc(-c3cc(C(=O)O)no3)cc12
6.60
7) N#Cc1cn(Cc2ccccc2Cl)c2ccc(-c3cc(C(=O)O)no3)cc12
6.70
8) N#Cc1cn(Cc2ccc(Br)cc2)c2ccc(-c3cc(C(=O)O)no3)cc12
5.93
